Taken from the Kinase Knowledgebase extract (Sharma et al. 2016).

# assayedTarget: MAPK14 (human) (UniProt Q16539)
# Sequence (Q16539 whole entry, looked up): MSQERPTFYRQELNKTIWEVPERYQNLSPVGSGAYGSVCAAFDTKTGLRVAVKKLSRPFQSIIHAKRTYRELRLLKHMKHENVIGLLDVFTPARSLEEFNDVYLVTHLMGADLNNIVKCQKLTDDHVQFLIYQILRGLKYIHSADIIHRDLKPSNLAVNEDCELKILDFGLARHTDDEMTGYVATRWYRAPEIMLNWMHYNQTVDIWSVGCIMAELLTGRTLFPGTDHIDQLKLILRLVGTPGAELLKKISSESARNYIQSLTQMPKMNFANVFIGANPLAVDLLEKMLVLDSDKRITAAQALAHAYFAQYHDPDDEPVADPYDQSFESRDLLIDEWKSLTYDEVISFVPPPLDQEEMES
pIC50: −log10 of the molar value.
Recorded pIC50 by entry

Take a look at these entries with their results.
* Cc1cc(=O)n(-c2ccccc2)c2sc(C(N)=O)c(Nc3ccccc3)c12 | ≥ 6.00
* NC(=O)c1sc2c(ccc(=O)n2-c2ccccc2)c1Nc1cccc(Br)c1 | ≥ 6.00
* CCOC(=O)c1sc2c(ccc(=O)n2-c2ccc3c(ccn3S(C)(=O)=O)c2)c1Nc1ccccc1C#N | ≥ 6.00
* Cc1cccc(Nc2c(C(N)=O)sc3c2ccc(=O)n3-c2ccccc2)c1C#N | ≥ 6.00
* Cc1cccc(Nc2c(C(N)=O)sc3c2ccc(=O)n3-c2ccccc2)n1 | ≥ 6.00

Give me measured pIC50, please, for this molecule: `NC(=O)c1sc2c(ccc(=O)n2-c2ccccc2)c1Nc1cccc(SC(F)(F)F)c1`
≥ 6.00

Give me measured pIC50, please, for this molecule: `CCOC(=O)c1sc2c(ccc(=O)n2-c2ccccc2)c1Nc1ccc(Cl)cc1`
≥ 6.00

Give me measured pIC50, please, for this molecule: `CCOC(=O)c1sc2c(ccc(=O)n2-c2ccccc2)c1Nc1ccc(F)cc1`
≥ 6.00

Give me measured pIC50, please, for this molecule: `CCOC(=O)c1sc2c(ccc(=O)n2-c2ccc(OCCn3ccnc3C)cc2)c1Nc1ccc(F)cc1F`
≥ 6.00

Give me measured pIC50, please, for this molecule: `CN(C)CCN(C)C(=O)c1sc2c(ccc(=O)n2-c2ccccc2)c1Nc1ccccc1`
≥ 6.00

Give me measured pIC50, please, for this molecule: `CON(C)C(=O)c1sc2c(ccc(=O)n2CC2CC2)c1Nc1ccccc1`
≥ 6.00

Give me measured pIC50, please, for this molecule: `NC(=O)c1sc2c(ccc(=O)n2CC2CC2)c1Nc1cccc(Br)c1`
≥ 6.00

Give me measured pIC50, please, for this molecule: `N#Cc1cccc(Nc2c(C(=O)N3CCCC3)sc3c2ccc(=O)n3-c2ccccc2)c1`
≥ 6.00

Give me measured pIC50, please, for this molecule: `CCOC(=O)c1sc2c(ccc(=O)n2-c2ccccc2)c1Nc1ccccc1OC`
≥ 6.00

Give me measured pIC50, please, for this molecule: `NC(=O)c1sc2c(ccc(=O)n2-c2ccccc2)c1Nc1ccccc1OC(F)F`
≥ 6.00

Give me measured pIC50, please, for this molecule: `CCOC(=O)c1sc2c(ccc(=O)n2-c2ccccc2)c1Nc1cccc(C)c1C#N`
≥ 6.00

Give me measured pIC50, please, for this molecule: `CCOC(=O)c1sc2c(ccc(=O)n2-c2ccc(NS(C)(=O)=O)cc2)c1Nc1ccc(F)cc1F`
≥ 6.00

Give me measured pIC50, please, for this molecule: `N#Cc1sc2c(ccc(=O)n2-c2ccccc2)c1Nc1ccccc1OC(F)(F)F`
≥ 6.00

Give me measured pIC50, please, for this molecule: `NC(=O)c1sc2c(ccc(=O)n2-c2ccccc2)c1Nc1cccc(O)c1`
≥ 6.00

Give me measured pIC50, please, for this molecule: `N#Cc1sc2c(ccc(=O)n2-c2ccccc2)c1Nc1ccccc1`
≥ 6.00
